Test system: HCT-116 colon
Assay: NCI tumour cell line growth inhibition, 48 h
Quantity: TGI

See these solved cases before continuing.
Cc1cc(C)c(-n2c(C)c(C)c(C#N)c2N)c(C)c1
48.9 µM
COc1ccc(/C=C(/C(=O)N2CCN(c3ccc(C)cc3)CC2)c2cc(OC)c(OC)c(OC)c2)cc1N
> 32.9 µM
O=C1C2=C(C(=O)c3c(O)ccc(O)c31)N(c1cccnc1)Cc1ccccc1O2
0.324 µM
COc1ccc(-c2c(-c3cc4c(c(OC)c3OC)OCO4)noc2N)cc1
15.9 µM
CC(=O)Oc1c(C)cc2c(c1C)C(C)(C)CN2C(=O)C(C)(C)C
> 100 µM

Query string: Using known records, supply TGI for Cc1cccc(C)c1NC(=O)C(=O)C(c1ccccc1Cl)S(=O)(=O)Cc1ccccc1Cl (stereo not given)
Result string: > 100 µM

----------
System: OVCAR-8 ovarian
Assay: NCI tumour cell line growth inhibition, 48 h
Quantity: TGI

See these solved cases before continuing.
Cc1cc(C)c(-n2c(C)c(C)c(C#N)c2N)c(C)c1
> 100 µM
C/C(=N\N)C(CN1CCCCC1)C(c1ccccc1)c1c(O)c2ccccc2oc1=O (stereo not given)
> 100 µM

Query string: Using known records, supply TGI for O=S1(=O)OCc2ccccc21
Result string: > 100 µM

Query string: Using known records, supply TGI for CCCCCCCC(=O)SCC/C=C/[C@@H]1CC(=O)NCc2cccc(n2)C2=N[C@@](C)(CS2)C(=O)N[C@@H](C(C)C)C(=O)O1
Result string: > 33.3 µM

Query string: Using known records, supply TGI for SCc1ccc(-c2ccc(CS)cc2)cc1
Result string: 53.7 µM

Query string: Using known records, supply TGI for C=C(c1ccccc1)[C@@]1(O)CCCC[C@H]1NC(c1ccccc1)c1ccccc1
Result string: 28.1 µM

Query string: Using known records, supply TGI for COc1ccc2c(c1)OCC1=C2Oc2ccccc2C1
Result string: > 100 µM

Query string: Using known records, supply TGI for CCCCCCCCCCCCCCCCCCNc1ccn(C2OC(COP(=O)(O)OCC(COP(=O)(O)OCC3OC(n4cc(C)c(=O)[nH]c4=O)CC3N=[N+]=[N-])OCCCCCCCCCCCCCCCCCC)C(O)C2O)c(=O)n1 (stereo not given)
Result string: > 100 µM

Query string: Using known records, supply TGI for CCOc1cccc2sc(N)nc12
Result string: > 100 µM

Query string: Using known records, supply TGI for CCN(CC)c1ccc(CNc2cc(C)nc3ccc(OC)cc23)cc1
Result string: 15.9 µM

----------
Test system: OVCAR-5 ovarian
Assay: NCI tumour cell line growth inhibition, 48 h
Quantity: TGI (µM)
Numbers only; they are read as µM.

Query string: Using known records, supply TGI for COCn1c(=O)n(C)c(=O)c2c1nc1c(c(=O)n(C)c(=O)n1COC)[n+]2[O-]
Result string: 97.2

Query string: Using known records, supply TGI for O=C(/C=C/c1ccccc1)Nc1ncc(Cc2ccccc2)s1
Result string: 35.8

----------
Tested on: SK-MEL-28 melanoma
Assay: NCI tumour cell line growth inhibition, 48 h
# reported TGI; entries follow

See these solved cases before continuing.
CC[C@@]1(O)C(=O)OCc2c1cc1n(c2=O)Cc2cc3c([N+](=O)[O-])c(O)ccc3nc2-1
35.5 µM
CC(/C=C/c1ccccc1)=N\N=C(C)\C=C\c1ccccc1
> 100 µM
COC1=CC(=O)c2c(O)c3c(c(O)c2C1=O)OC1(Oc2c(cc4cc(C)oc(=O)c4c2O)CC1O)C3O (centres undefined)
> 100 µM
COc1ccc(C(=C(C#N)C#N)c2ccc(OC)cc2)cc1
> 100 µM
CCOC(=O)CCC(NC(=O)C(CCC(=O)OCC)NC(=O)C(Cc1ccc([N+](=O)[O-])cc1)NC(C)=O)C(=O)NNC(=O)OC(C)(C)C (centres undefined)
> 100 µM

Query string: Using known records, supply TGI for COc1ccc2c(c1)[n+]([O-])c(/C(C)=N/NC(N)=S)c(C)[n+]2[O-]
Result string: > 100 µM

Query string: Using known records, supply TGI for COc1cccc([C@@H]2C/C(=N\NC(=O)C(=O)N[C@@H](C)c3ccccc3)c3cc4c(cc3N2)OCO4)c1
Result string: > 100 µM

Query string: Using known records, supply TGI for O=C(Nc1ccc(-n2ccc3c(NC(=O)c4ccccc4)ncnc32)cc1)Nc1ccc(Cl)c(C(F)(F)F)c1
Result string: 4.46 µM

Query string: Using known records, supply TGI for Clc1cc2nc[nH]c2cc1Cl
Result string: > 100 µM

Query string: Using known records, supply TGI for O=C1c2cccc3c([N+](=O)[O-])ccc(c23)C(=O)N1CCCCl
Result string: > 10 µM

Query string: Using known records, supply TGI for COC(=O)CCC(=O)Nc1cccc(C(F)(F)F)c1
Result string: > 100 µM

Query string: Using known records, supply TGI for Cc1nc2ccc(F)cc2c2c1CCN2c1ccccc1
Result string: 34.3 µM

Query string: Using known records, supply TGI for Nc1nc2ccccc2c2[nH]c3ccccc3c12
Result string: 3.19 µM

Query string: Using known records, supply TGI for CSC1=C(C(=O)N(COCC[Si](C)(C)C)c2ccccc2Br)CCC(C(C)(C)C)C1 (centres undefined)
Result string: > 100 µM

Query string: Using known records, supply TGI for COc1ccc(-c2c(-c3cc4c(c(OC)c3OC)OCO4)noc2N)cc1
Result string: > 100 µM

Query string: Using known records, supply TGI for Cc1cc(Cl)ccc1NC(=O)C1C(=O)C(=O)N(c2ccc(Cl)cc2C)C1=O (centres undefined)
Result string: > 100 µM

----------
Tested on: ACHN renal
Test: NCI tumour cell line growth inhibition, 48 h
# reported TGI; entries follow

CCOc1ccc(NC(=O)/C(Cc2nc3ccccc3[nH]c2=O)=N\O)cc1
> 100 µM
CSC1=C(C(=O)N(COCC[Si](C)(C)C)c2ccccc2Br)CCC(C(C)(C)C)C1 (stereo not given)
51.2 µM
Cc1cccc(NC(N)=S)c1
> 100 µM
Cc1cc2nn(C3CCCCO3)nc2cc1C (stereo not given)
> 100 µM

// switching to the query compound
Query string: Using known records, supply TGI for COc1ccc(-c2cc(=O)c3c(OC)c(O)c(OC)cc3o2)cc1
Result string: > 100 µM

----------
System: OVCAR-5 ovarian
Test: NCI tumour cell line growth inhibition, 48 h
Quantity: TGI

See these solved cases before continuing.
COc1cccc(-c2cc(C(=O)Nc3ccc(Cl)cc3)nc(N)n2)c1
> 100 µM
O=c1oc2cc(O)ccc2c(O)c1C(c1ccc2ccccc2c1)c1c(O)c2ccc(O)cc2oc1=O
> 100 µM

Query string: Please report the measured TGI for Cc1cc2nn(C3CCCCO3)nc2cc1C (stereo not given) tested on OVCAR-5 ovarian.
Result string: > 100 µM

Query string: Please report the measured TGI for COc1ccc(/C=C(/C(=O)N2CCN(c3ccc(C)cc3)CC2)c2cc(OC)c(OC)c(OC)c2)cc1N tested on OVCAR-5 ovarian.
Result string: > 100 µM

Query string: Please report the measured TGI for COC1CC(=O)C2C(=O)N(c3ccccc3)C(=O)C23C(C(=O)c2ccccc2)=C(C)NC13O (stereo not given) tested on OVCAR-5 ovarian.
Result string: 54.5 µM

Query string: Please report the measured TGI for CC(=O)N(CN1C(=O)CCC1C(=O)O)c1ccc(C)cc1 (stereo not given) tested on OVCAR-5 ovarian.
Result string: > 100 µM

Query string: Please report the measured TGI for COc1ccc2c(c1)OCC1=C2Oc2ccccc2C1 tested on OVCAR-5 ovarian.
Result string: 88.8 µM

Query string: Please report the measured TGI for COC(=O)c1c(O)ccc2c1c1cc3ccccc3c(O)c1n2Cc1ccccc1Cl tested on OVCAR-5 ovarian.
Result string: > 100 µM

Query string: Please report the measured TGI for O=C(c1ccc(-c2ccccc2)cc1)N(Cc1cccnc1)C(=S)N(Cc1cccnc1)C(=O)c1ccc(-c2ccccc2)cc1 tested on OVCAR-5 ovarian.
Result string: > 100 µM

Query string: Please report the measured TGI for O=C1C2=C(C(=O)c3c(O)ccc(O)c31)N(c1cccnc1)Cc1ccccc1O2 tested on OVCAR-5 ovarian.
Result string: 1.8 µM

----------
# reported TGI; entries follow
Tested on: HCC-2998 colon
Assay: NCI tumour cell line growth inhibition, 48 h
Numbers only; they are read as µM.

OCCNC(=S)Nc1ccc(-c2nc(N3C[C@H]4CC[C@@H](C3)O4)c3cccn3n2)cc1
18.6
C=C1CC(COc2ccc3c(C)c(Cl)c(=O)oc3c2)(c2ccccc2)OC1=O (stereo not given)
3.59
C=C(c1ccccc1)[C@@]1(O)CCCC[C@H]1NC(c1ccccc1)c1ccccc1
26.1

Query string: Using known records, supply TGI for COCn1c(=O)n(C)c(=O)c2c1nc1c(c(=O)n(C)c(=O)n1COC)[n+]2[O-]
Result string: 18.1
